All figures here come from patent US20080009534A1.

Target: human PPARα receptor (Homo sapiens)
Construct: transiently transfecting GAL4-hPPARα-LBD or GAL4-hPPARγ-LBD constructs
Sequence (Q07869 239-466 limits assumed): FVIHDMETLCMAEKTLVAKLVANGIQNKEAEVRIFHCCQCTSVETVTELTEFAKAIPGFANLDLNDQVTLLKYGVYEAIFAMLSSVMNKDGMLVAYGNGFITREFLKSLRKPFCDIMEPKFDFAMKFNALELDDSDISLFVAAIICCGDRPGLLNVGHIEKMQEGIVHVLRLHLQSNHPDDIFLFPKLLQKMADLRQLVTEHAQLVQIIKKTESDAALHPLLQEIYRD
Assay: In vitro PPAR agonist functional assay, GAL4-hPPARα-LBD transactivation in HEK293 cells (luciferase)
Conditions: GAL4-hPPARα-LBD in HEK293 cells, half-maximal fold induction
pEC50: −log10 of the molar value.
Experimental Endpoint: pEC50

Cc1ccc(OC(=O)N(CC(=O)O)[C@@H](C)c2ccc(OCc3nc(-c4ccccc4)oc3C)cc2)cc1F: 8.22
Cc1cc(OC(=O)N(CC(=O)O)[C@@H](C)c2ccc(OCc3nc(-c4ccccc4)oc3C)cc2)ccc1F: 8.10
COc1cccc(OC(=O)N(CC(=O)O)[C@@H](C)c2ccc(OCc3nc(-c4ccc(C)cc4)oc3C)cc2)c1: 8.22
